Biological target: WrbA (NADH:quinone oxidoreductase WrbA; WrbAJW) (Escherichia coli, UniProt P0A8G6)
Sequence (P0A8G6 2-198): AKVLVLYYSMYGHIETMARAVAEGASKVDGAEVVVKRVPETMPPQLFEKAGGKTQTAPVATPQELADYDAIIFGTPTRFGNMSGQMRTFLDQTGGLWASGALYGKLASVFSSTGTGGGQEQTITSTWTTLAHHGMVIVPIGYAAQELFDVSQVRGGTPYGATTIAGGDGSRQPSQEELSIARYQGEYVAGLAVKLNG
Assay: NADH:DCPIP oxidoreductase activity assay of purified WrbAJW
readout: pIC50
Lab note: report pIC50 as minus log10 of the concentration in molar units, number only.

Given the compound O=C(O)c1ccccc1O [SA, salicylic acid] , write its reported pIC50. 2.11

* * *

Target: WrbA (NADH:quinone oxidoreductase WrbA; WrbAJW) (Escherichia coli, UniProt P0A8G6)
Assay: MST (Kd […]); also SPR (Kd […]) and NADH:DCPIP oxidoreductase inhibition (IC50 […])
Type: binding
readout: Kd (µM)
Lab book: enter the figure in µM, no units written.

Given the compound O=c1oc2c(O)c(O)cc3c(=O)oc4c(O)c(O)cc1c4c23 [EA, ellagic acid] , write its reported Kd. 1.5
